# Assay system: human CD33 variant K52T (human, UniProt P20138 18-364)
# Sequence (P20138 18-364 K52T limits assumed): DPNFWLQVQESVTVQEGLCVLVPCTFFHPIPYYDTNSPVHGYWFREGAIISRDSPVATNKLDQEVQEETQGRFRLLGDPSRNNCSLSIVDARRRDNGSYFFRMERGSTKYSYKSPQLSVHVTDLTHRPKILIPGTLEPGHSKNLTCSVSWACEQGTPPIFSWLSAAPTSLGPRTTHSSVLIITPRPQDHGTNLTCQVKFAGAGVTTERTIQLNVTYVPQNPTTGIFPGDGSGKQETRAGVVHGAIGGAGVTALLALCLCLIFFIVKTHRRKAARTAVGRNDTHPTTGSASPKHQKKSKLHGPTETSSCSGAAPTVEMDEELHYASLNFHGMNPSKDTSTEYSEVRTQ
# Assay details: flow cytometry, IgG on cells expressing the mutant
Would you kindly list Mean % WT Binding for each of these binders?

Qu. Given the entry Refmab #2 (antibody, human IgG1, V domains shown, Tested in IgG format; human IgG1 Fc silent (PG-LALA)) VH: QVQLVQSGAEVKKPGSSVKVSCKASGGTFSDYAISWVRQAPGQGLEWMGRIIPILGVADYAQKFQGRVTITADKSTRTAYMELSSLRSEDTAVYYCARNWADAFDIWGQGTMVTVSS VL: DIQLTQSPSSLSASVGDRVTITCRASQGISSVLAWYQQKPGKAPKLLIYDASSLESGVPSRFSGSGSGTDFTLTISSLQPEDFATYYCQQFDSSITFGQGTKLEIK , report its measured Mean % WT Binding.
Ans. 120 % of WT

Qu. Given the entry Refmab #1 (antibody, human IgG1, V domains shown, Tested in IgG format; human IgG1 (Absolute Antibody hP67.6, Cat. No. Ab00283-10.0); also called hP67.6) VH: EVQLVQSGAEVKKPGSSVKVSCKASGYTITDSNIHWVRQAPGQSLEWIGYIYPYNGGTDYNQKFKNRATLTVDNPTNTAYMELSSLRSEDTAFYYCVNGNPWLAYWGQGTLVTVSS VL: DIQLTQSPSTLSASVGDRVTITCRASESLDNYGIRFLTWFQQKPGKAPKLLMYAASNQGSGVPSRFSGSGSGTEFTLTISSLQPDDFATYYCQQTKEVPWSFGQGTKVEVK , report its measured Mean % WT Binding.
Ans. 102 % of WT

Qu. Given the entry Refmab #3 (antibody, human IgG1, V domains shown, Tested in IgG format; human IgG1 Fc silent (PG-LALA)) VH: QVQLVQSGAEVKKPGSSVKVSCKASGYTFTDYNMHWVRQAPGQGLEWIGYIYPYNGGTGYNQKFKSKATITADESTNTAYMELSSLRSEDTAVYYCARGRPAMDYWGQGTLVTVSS VL: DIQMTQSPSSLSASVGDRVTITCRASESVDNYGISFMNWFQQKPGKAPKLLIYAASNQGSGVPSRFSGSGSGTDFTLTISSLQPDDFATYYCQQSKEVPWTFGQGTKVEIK , report its measured Mean % WT Binding.
Ans. 103 % of WT

Qu. Given the entry Refmab #4 (antibody, human IgG1, V domains shown, Tested in IgG format; human IgG1 Fc silent (PG-LALA)) VH: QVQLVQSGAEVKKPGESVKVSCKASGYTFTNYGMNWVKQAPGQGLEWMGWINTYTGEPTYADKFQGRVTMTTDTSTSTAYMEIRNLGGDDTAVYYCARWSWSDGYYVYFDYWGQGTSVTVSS VL: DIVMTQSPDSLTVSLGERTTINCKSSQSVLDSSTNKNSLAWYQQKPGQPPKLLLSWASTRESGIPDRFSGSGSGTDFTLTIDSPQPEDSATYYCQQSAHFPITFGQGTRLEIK , report its measured Mean % WT Binding.
Ans. 83.5 % of WT
